All values here come from ChEMBL document CHEMBL5214984.

# protocol: Lipophilicity, log D of the compound
# experimental-parameters: octanol/water
recorded-endpoint: logD

A: CC(C)(C)NCC(O)COc1cccc2c1CC(O)C(O)C2 (stereo not drawn)
B: N=C(N)NCCCNC(=O)[C@@H]1CCCCN1C(=O)[C@@H](CC1CCCCC1)NCC(=O)O
C: CN(C)CCc1c[nH]c2ccc(C[C@H]3COC(=O)N3)cc12
Q) Reorder the items by logD, least to greatest. Reply format: the labels, ordered as requested.
A) A, C, B

====

# protocol: Inhibition of human OAT2 tv.1 variant expressed in HEK293 cells assessed as inhibition of [3H]cGMP uptake by scintillation analysis
# Format: ADME, cell-based
# experimental-parameters: HEK293, 3 h
pIC50: −log10 of the molar value.
recorded-endpoint: pIC50

Recorded pIC50, per entry:
COc1ccc2c(c1)c(CC(=O)O)c(C)n2C(=O)c1ccc(Cl)cc1 :: 5.54
O=C1NC(=O)N(/N=C/c2ccc(-c3ccc([N+](=O)[O-])cc3)o2)C1O (configuration not stated) :: 4.80
CCCCc1nc(C)c(CC(=S)N(C)C)c(=O)n1Cc1ccc(-c2ccccc2-c2nnn[nH]2)cc1 :: 4.80
CN(C)C(=O)CCSC(SCCC(=O)O)c1cccc(/C=C/c2ccc3ccc(Cl)cc3n2)c1 (configuration not stated) :: 5.02
COC(=O)C1=C(C)NC(C)=C(C(=O)OC)C1c1ccccc1[N+](=O)[O-] :: 5.19

a: CCN(CC)C(=O)/C(C#N)=C/c1cc(O)c(O)c([N+](=O)[O-])c1
b: COc1ccc(Cl)cc1C(=O)NCCc1ccc(S(=O)(=O)NC(=O)NC2CCCCC2)cc1 [GLYBURIDE]
Q) Select one. Lower pIC50: a or b Your answer should be the label of the entry you select.
A) b

====

# protocol: Dissociation constant, pKa of the compound
# Assay type: physicochemical
recorded-endpoint: pKa

Recorded pKa, per entry:
O=C(O)CSc1nnc(Br)n1-c1ccc(C2CC2)c2ccccc12 :: 3.4
CN(C)CCc1c[nH]c2ccc(C[C@H]3COC(=O)N3)cc12 :: 8.7

I: CNCC[C@@H](Oc1ccccc1C)c1ccccc1
II: CCCCc1nc(C)c(CC(=S)N(C)C)c(=O)n1Cc1ccc(-c2ccccc2-c2nnn[nH]2)cc1
III: N=C(N)NCCCNC(=O)[C@@H]1CCCCN1C(=O)[C@@H](CC1CCCCC1)NCC(=O)O
Q) Task for the reader: rank each entry by its pKa, from the minimum upward. Reply format: the labels, ordered as requested.
A) III, II, I

====

# protocol: Dissociation constant, pKa of the compound
# Format: physicochemical
recorded-endpoint: pKa

Recorded pKa, per entry:
CNn1cc(C(=O)O)c(=O)c2cc(F)c(N3CCN(C)CC3)cc21 [AMIFLOXACIN] :: 6.3
N[C@@H]1[C@H]2CN(c3nc4c(cc3F)c(=O)c(C(=O)O)cn4-c3ccc(F)cc3F)C[C@@H]12 [TROVAFLOXACIN] :: 6

a: Cc1noc(NS(=O)(=O)c2ccc(N)cc2)c1C [SULFISOXAZOLE]
b: C[C@H]1CN(C[C@H](Cc2ccccc2)C(=O)NCC(=O)O)CC[C@@]1(C)c1cccc(O)c1 [ALVIMOPAN]
Q) Select one. Lower pKa: a or b Your answer should be the label of the entry you select.
A) b
(b: 3.2, a: 4.8)

====

# protocol: Inhibition of human OAT2 tv.1 variant expressed in HEK293 cells assessed as inhibition of [3H]cGMP uptake by scintillation analysis
# Format: ADME, cell-based
# experimental-parameters: HEK293, 3 h
recorded-endpoint: IC50 (µM)

N[C@@H]1[C@H]2CN(c3nc4c(cc3F)c(=O)c(C(=O)O)cn4-c3ccc(F)cc3F)C[C@@H]12 :: 11.5
CC(C(=O)O)c1cccc(C(=O)c2ccccc2)c1 (stereo not given) :: 14.9
O=C1CN(/N=C/c2ccc(-c3ccc([N+](=O)[O-])cc3)o2)C(=O)N1 :: 16
CCCc1nc2c(C)cc(-c3nc4ccccc4n3C)cc2n1Cc1ccc(-c2ccccc2C(=O)O)cc1 :: 13.7
O=C(O)CSc1nnc(Br)n1-c1ccc(C2CC2)c2ccccc12 :: 11.5
